- Tested on: 7G8
- method-summary: qHTS profiling for inhibitors of Plasmodium falciparum proliferation (AID 504749); further: nearly all actives have a fitted effect of over 60% in size
- test-context: P. falciparum in erythrocytes, SYBR Green DNA, 72 h; series mostly up to 28.7 µM
Results filed as inconclusive are left out. The source made the active and inactive calls. The call rests on the fitted dose curve; in most records, active means well fitted inhibition curve with a large enough effect; inconclusive means small, poorly fitted or top-dose-only effect; inactive means flat fitted curve, though single readings scatter.
Write down the outcome that applies. Available outcomes: YES = active, NO = inactive

Look over these answered cases.
C/C=C\c1ccc(OC)cc1 : NO
CC(C)CN(C[C@@H](O)[C@H](Cc1ccccc1)NC(=O)O[C@H]1CCOC1)S(=O)(=O)c1ccc(N)cc1 : YES
Cc1cc(CC(C)CC(C)(C)C)n(O)c(=O)c1 (centres undefined) : YES
CCC(C)n1ncn(-c2ccc(N3CCN(c4ccc(OCC5COC(Cn6cncn6)(c6ccc(Cl)cc6Cl)O5)cc4)CC3)cc2)c1=O (centres undefined) : YES
CN(C)CCCCCCN(C)C : NO
CC1CCC(C(C)C)C(OC(=O)c2ccccc2O)C1 (centres undefined) : NO

Give the logged outcome of this assay for the following compound: CC(C)CN(C[C@@H](OP(=O)(O)O)[C@H](Cc1ccccc1)NC(=O)O[C@@H]1CCOC1)S(=O)(=O)c1ccc(N)cc1
NO

In this assay, the call recorded for O=NCc1ccc([N+](=O)[O-])o1 was what?
YES

Please let me know the test result on file for C=C[C@]1(C)C[C@@H](OC(=O)CSCCN(CC)CC)[C@]2(C)C(C)CC[C@]3(CCC(=O)[C@H]32)[C@@H](C)[C@@H]1O (some centres undefined) .
YES

---

- test-system: Ubiquitin carboxyl-terminal hydrolase 1 (Homo sapiens)
- method-summary: Inhibitors of USP1/UAF1: Pilot qHTS (AID 504865); further: nearly all actives have a fitted effect of over 35% in size
- test-context: purified USP1/UAF1, Ub-rhodamine cleavage fluorescence; series mostly up to 54.9 µM
Inconclusive results are not listed. The source made the active and inactive calls. The call rests on the fitted dose curve; in most records, active means well fitted inhibition curve with a large enough effect; inconclusive means small, poorly fitted or top-dose-only effect; inactive means flat fitted curve, though single readings scatter.
Reply using exactly one outcome from yes (1) (active), no (0) (inactive)

Cn1cc(-c2nc3cnc(N4CCNCC4)nc3n(C3CC3)c2=O)c2ccccc21 : no (0)
N#Cc1cccc(-c2ccc3ncnc(NCc4cccs4)c3c2)c1 : yes (1)
CN1CCN(c2nc(-c3ccoc3)nc3ccccc23)CC1 : no (0)

Fill in: this test's call for COCCn1c(=O)c(-c2ccc(F)cc2)nc2cnc(Nc3cccc(OC)c3)nc21 is ___
no (0)

State the result this test recorded for COCCn1c(=O)c(-c2ccc(F)cc2)nc2cnc(Oc3ccccc3)nc21 .
no (0)

---

- method-summary: Quantitative high throughput screen for delayed death inhibitors of the malarial parasite plastid, 96 hour incubation (AID 488745); further: nearly all actives have a fitted effect of over 70% in size; further: potency means the concentration at half of the fitted maximal effect
- test-context: Plasmodium falciparum growth; series mostly up to 28.7 µM
Records with an inconclusive call do not appear. Activity calls are given as the source filed them. Calls come from the whole dose curve; as a rule, active = well fitted inhibition curve with a large enough effect; inconclusive = small, poorly fitted or top-dose-only effect, or effect the other way; inactive = no such curve, though single readings can be large or run the other way.
readout-name: Potency

Nc1nc(Cl)nc2c1ncn2[C@@H]1O[C@H](COP(=O)(O)OP(=O)(O)OP(=O)(O)O)[C@H](O)[C@H]1O : inactive
O=S(=O)(O)C1CCNCC1 : inactive
C[C@H]1c2cccc(O)c2C(O)=C2C(=O)[C@]3(O)C(O)=C(C(N)=O)C(=O)C(N(C)C)[C@@H]3[C@@H](O)C21 (stereo not given in full) : 370 nM (active)
Nc1nc(Cl)nc2c1ncn2[C@@H]1O[C@H](CO)[C@H](O)[C@H]1O : 5220 nM (active)

In the following, a different compound is considered.
I have this compound here, COc1cc2c(cc1O)CCC1C2CC[C@]2(C)[C@@H](O)CC[C@@H]12 (stereo not given in full) , and I need its recorded Potency.
inactive

---

- test-system: Rap guanine nucleotide exchange factor 3 (Homo sapiens) (UniProt O95398)
- Sequence (O95398 whole entry, looked up): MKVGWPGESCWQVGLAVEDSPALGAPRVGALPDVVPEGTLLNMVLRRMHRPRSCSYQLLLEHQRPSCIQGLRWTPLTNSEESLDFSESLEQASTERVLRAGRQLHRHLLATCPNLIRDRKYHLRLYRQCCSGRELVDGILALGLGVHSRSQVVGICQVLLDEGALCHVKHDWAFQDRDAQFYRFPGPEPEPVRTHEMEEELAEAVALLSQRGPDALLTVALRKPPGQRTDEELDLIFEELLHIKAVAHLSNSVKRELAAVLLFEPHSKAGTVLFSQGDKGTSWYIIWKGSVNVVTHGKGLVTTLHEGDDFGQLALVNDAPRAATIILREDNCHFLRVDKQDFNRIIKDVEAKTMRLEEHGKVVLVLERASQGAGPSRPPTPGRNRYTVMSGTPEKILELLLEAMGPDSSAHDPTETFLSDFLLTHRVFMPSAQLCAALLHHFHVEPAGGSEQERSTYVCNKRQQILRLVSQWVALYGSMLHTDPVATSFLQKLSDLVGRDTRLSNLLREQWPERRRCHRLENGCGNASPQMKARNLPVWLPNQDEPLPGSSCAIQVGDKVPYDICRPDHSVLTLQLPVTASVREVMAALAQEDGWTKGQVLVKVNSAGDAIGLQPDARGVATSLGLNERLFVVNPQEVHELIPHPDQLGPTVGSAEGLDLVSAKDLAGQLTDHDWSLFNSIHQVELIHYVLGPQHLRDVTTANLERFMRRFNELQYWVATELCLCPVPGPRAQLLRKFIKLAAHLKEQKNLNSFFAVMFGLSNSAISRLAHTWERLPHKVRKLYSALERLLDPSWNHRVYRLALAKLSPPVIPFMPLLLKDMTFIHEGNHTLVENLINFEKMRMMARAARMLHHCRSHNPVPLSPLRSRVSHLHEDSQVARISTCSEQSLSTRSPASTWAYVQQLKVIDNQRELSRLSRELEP
- method-summary: Counterscreen qHTS for antagonist of cAMP-regulated guanine nucleotide exchange factor 3 (EPAC1) (AID 1645888);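 further: fluorescence loss as bound BODIPY-GDP is released from Rap1B; % of control where 0% means no effect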
- test-context: Rap1B-BODIPY-GDP nucleotide exchange, fluorescence; series mostly up to 154 µM
Results filed as inconclusive are left out. Active and inactive are the calls of the source. Calls follow the shape of the dose curve; as a rule, active = well fitted inhibition curve with a large enough effect; inconclusive = small, poorly fitted or top-dose-only effect; inactive = no such curve, though single readings can be large or run the other way.
readout-name: activity change, negative = inhibition

Cc1cc2ccccn2c1C(=O)c1ccc(F)cc1 : inactive
CC(C)(C(=O)N1CCC1(C)C(=O)NS(=O)(=O)c1cccc(Cl)c1)c1ccccc1 (stereo not given) : inactive
CC(=O)c1ccc(N2CCN(C(=O)c3cc(-c4cccnc4)nc4ccc(Br)cc34)CC2)cc1 : inactive
O=C(O)CN1C(=O)/C(=C\C(Br)=C\c2ccccc2)SC1=S : 0.657% [at 30.8 µM] (inactive)
O=C(O)CN1C(=O)/C(=C\c2cc(Br)ccc2OCc2ccccc2Cl)SC1=S : inactive
Cc1ccc(C(=O)c2no[n+]([O-])c2C(=O)c2ccc(C)cc2)cc1 : inactive

Fill blank: measured activity change, negative = inhibition of the compound O=C(O)C(Cc1ccccc1)N1C(=O)/C(=C/c2cccs2)SC1=S (stereo not given) is ____.
inactive

Which activity change, negative = inhibition is reported for this compound? O=C(NC1(O)C(=O)c2ccccc2C1=O)c1ccccc1
inactive

Look at this compound and give its reported activity change, negative = inhibition. C=C1CC2C(=O)N(Cc3cc(OC)ccc3OC)C(C(=O)OCC)(C(=O)OCC)C1N2C(=O)OC(C)(C)C (stereo not given)
inactive

// lookup activity change, negative = inhibition for O=C(O)CSc1cc(NS(=O)(=O)c2ccc(Cl)cc2)c2ccccc2c1O
inactive

---

- method-summary: qHTS assay for small molecule agonists of the antioxidant response element (ARE) signaling pathway measured by Nrf2-dependant transcriptional activity - cell viability counter screen (AID 720653); further: on the % scale 0 is the no-effect control and ±100 the full control effect
- test-context: ARE-bla HepG2 viability, CellTiter-Glo ATP luminescence, 16 h; hits give low values
Results filed as inconclusive are left out.
readout-name: max response (%)
Quick note: give the figure in %, leave out the unit.

For orientation, consider the following solved cases.
O=C(O[C@@H]1Cc2c(O)cc(O)cc2O[C@@H]1c1cc(O)c(O)c(O)c1)c1cc(O)c(O)c(O)c1 : -12.8
C[Si](C)(C)O[Si](C)(C)O[Si](C)(C)C : 4.82
O=C(O)c1ccccc1 : 1.2
O=C(/C=C/c1ccc(O)c(O)c1)O[C@@H](C(=O)O)[C@@H](OC(=O)/C=C/c1ccc(O)c(O)c1)C(=O)O : 27.4
O=C(O)CCCCCCCCC(=O)O : -1.89

Moving on to the next compound.
# max response lookup, item C=CC(=O)OCCOCCOCCOCCOC(=O)C=C
-13

---

- test-system: Rap guanine nucleotide exchange factor 4 (Homo sapiens)
- method-summary: Confirmatory qHTS for antagonist of cAMP-regulated guanine nucleotide exchange factor 4 (EPAC2) (AID 1645885); further: nearly all actives have a fitted effect of over 25% in size
- test-context: EPAC2 Rap1B-BODIPY-GDP exchange fluorescence, biochemical; series mostly up to 12.7 µM
Records with an inconclusive call do not appear. The source made the active and inactive calls. Calls come from the whole dose curve; as a rule, active = well fitted inhibition curve with a large enough effect; inconclusive = small, poorly fitted or top-dose-only effect; inactive = no such curve, though single readings can be large or run the other way.
Choose the fitting class; nothing outside y (active), n (inactive) is accepted.

# count of solved cases: 10
COc1ccc2nc3ccccc3[n+]([O-])c2c1 : n
CN1/C(=C/C=C(C#N)C#N)C(C)(C)c2ccccc21 : n
Clc1ccc(OCCn2c(-c3ccco3)nc3ccccc32)cc1 : n
c1ccc(NN(Cc2ccccn2)c2ccccc2)cc1 : n
COc1ccc(S(=O)(=O)Nc2ccccc2SC)cc1C : y
Cc1cc(Br)cn2c(Cc3ccsc3)c(-c3ccco3)nc12 : n
COc1cccc(OCc2nc3ccccc3n2Cc2ccccc2)c1 : n
Cc1ccc(OCC(=O)Nc2ccc(N3CCCC3)cc2)cc1C : n
CC1(OC(=O)C2CCCC2)C(=O)C=C2C=C(c3ccsc3)N(Cc3ccco3)C=C2C1=O (stereo unspecified) : n
CC(=O)c1cc(CC(=O)N2CCc3c([nH]c4ccccc34)C2c2ccccn2)cs1 (stereo unspecified) : n

How was C/C(CC(=O)Nc1ccc(Cl)c(C(F)(F)F)c1)=N\NC(=O)c1cnccn1 classified in this test?
n

---

- method-summary: qHTS assay for small molecule disruptors of the mitochondrial membrane potential - 1 hr assay (AID 651754); further: nearly all actives have a fitted effect of over 35% in size
- test-context: series mostly up to 92.2 µM
- Excerpt: National Center for Advancing Translational Sciences [NCATS] NIH Chemical Genomics Center [NCGC] National Institutes of Environmental Health Sciences [NIEHS] National Toxicology Program [NTP] Mitochondrial membrane potential (MMP), one of the parameters for mitochondrial function, is generated by mitochondrial electron transport chain that creates an electrochemical gradient by a series of redox reactions. […] The dye accumulates in the mitochondria of healthy cells as aggregates, with red fluorescence. […]
Inconclusive results are not listed. The source made the active and inactive calls. Calls follow the shape of the full dose curve.
Permitted responses: active, inactive

Illustrative cases are given below, each with its answer.
O=C1c2ccccc2C(=O)C1c1ccc2ccccc2n1 : active
Cc1ccc(N)c([N+](=O)[O-])c1 : inactive
COCC(=O)O : inactive

Identify the outcome logged in this assay for the molecule shown: COc1cc(/C=C/c2ccccc2)oc(=O)c1
inactive

Can you look up the reported call for ClCCCl for me?
inactive

Could you kindly confirm the outcome this assay logged for CCCCCCCCCCCCCC(=O)O ?
inactive

What did the test return for CC1=CC(C)(C)Nc2ccccc21 ?
inactive

Given O=C(O)CC(C(=O)O)C(CC(=O)O)C(=O)O (stereo not drawn) , state the outcome it received in this test.
inactive

Per the records of this test, what outcome belongs to Clc1cc(Cl)c(Cl)c(Cl)c1Cl ?
inactive

Field: outcome | Entry: O=NO
inactive

Entry O=S(=O)(O)c1ccccc1 : call = ?
inactive

Would you mind telling me which call this test gave O=[N+]([O-])c1cccc(Cl)c1Cl ?
inactive

Would you mind telling me which call this test gave CCC(C)c1ccccc1O (stereo not drawn) ?
inactive

Which outcome did this test record for the molecule COC(=O)c1ccc(C)cc1 ?
inactive

What outcome does the record of this test show for CCCCCCCCO ?
inactive

Kindly provide the recorded test outcome for the following molecule: CCO[Si](CCCN)(OCC)OCC
inactive

Look up the recorded call for C=CC(=C)CCC=C(C)C in this test.
inactive

Given O=C(/C=C/c1ccc(O)c(O)c1)O[C@@H](C(=O)O)[C@@H](OC(=O)/C=C/c1ccc(O)c(O)c1)C(=O)O , state the outcome it received in this test.
inactive
